All values here come from the supplement of paper PMC13380429.

tested on: Caco-2; assay: cell viability relative to DMSO; higher = less toxic; details: 72 h; 1000 nM
Can you tell me cell viability for the items I'm about to list?
Answer format: numeric, % implied, no suffix.

For the record `CCN1CCN(C(=O)Cc2ccc(Nc3ncc(F)c(Nc4ccc(C(=O)Nc5ccccc5Cl)cc4)n3)cc2)CC1` , what value of cell viability is listed for Caco-2? 98

Given the entry `CC(C)=CCC/C(C)=C/CC/C(C)=C/CSc1ccccc1C(=O)O` , what cell viability was observed with Caco-2? 96.3

Lab request: please report cell viability under test system Caco-2 for `Cc1csc(NC(=O)CSc2ccc(-c3ccccc3)nn2)n1` 97

Tell me reported cell viability for `C[C@H](Cc1ccc(O)c(O)c1)[C@@H](C)Cc1ccc(O)c(O)c1` , tested with Caco-2. 78.6

Form entry - test system: Caco-2; read-out: cell viability; compound: `CCCCOc1ccc(CC/C=C2\SC(=O)N(CCN)C2=O)cc1` 91.2
